Experiment: Pharmacokinetics of five iridoids in rat plasma after oral administration of PS extract (UHPLC-ESI-MS/MS)
Format: in vivo, SD (Sprague Dawley) rats
Conditions: male, Sprague-Dawley, rat, in vivo, po, 1 g/kg
Below: a set of entries, each annotated with reported MRT last.
Give just the number in h; leave the unit off.

Answered examples (2):
O=C(/C=C/c1ccccc1)OC[C@H]1O[C@@H](O[C@@H]2OC=C[C@H]3[C@H](O)[C@@H]4O[C@]4(CO)[C@@H]23)[C@H](O)[C@@H](O)[C@@H]1O [Picroside-I] | 3.6
COc1cc(C(=O)O[C@H]2[C@@H]3C=CO[C@@H](O[C@@H]4O[C@H](CO)[C@@H](O)[C@H](O)[C@H]4O)[C@@H]3[C@@]3(CO)O[C@@H]23)ccc1O [Picroside-II] | 2.3

Turning now to a further molecule:
For record COc1ccc(/C=C/C(=O)O[C@H]2[C@@H]3C=CO[C@@H](O[C@@H]4O[C@H](CO)[C@@H](O)[C@H](O)[C@H]4O)[C@@H]3[C@@]3(CO)O[C@@H]23)cc1O [Minecoside, minecoside] the listed MRT last is 4.1
